FYI, the data here is from patent US7996156B2.

target: estrogen receptor (Rattus norvegicus, UniProt P06211); construct: in rat uterine cytosol, which was obtained from ovariectomized uteri of Sprague-Dawley rats; from tissue; host or cells: uterine cytosol of ovariectomized Sprague-Dawley rats; assay: Competitive ER binding assay with [3H]E2 in rat uterine cytosol (NCTR); settings: relative binding affinity vs 17-β-estradiol (RBA 100), rat uterine cytosol, 130 compound training set
Bucketed by reported Exp. Log(RBA), buckets being interval 1 (below -2), interval 2 (-2 to below -0.6), interval 3 (-0.6 or more)

Below are worked cases with known answers.
>  <Molecule>
C[C@]12CC[C@@H]3c4ccccc4CC[C@H]3[C@@H]1CC[C@@H]2O

>  <Classification>
interval 3

$$$$
>  <Molecule>
O=C1CC(c2ccc(O)cc2)Oc2ccccc21 (stereo not shown) [4′-hydroxyflavanone]

>  <Classification>
interval 1

$$$$
>  <Molecule>
COc1ccc2c(c1)CC[C@@H]1[C@@H]2CC[C@]2(C)[C@@H](O)[C@H](O)C[C@@H]12

>  <Classification>
interval 2

$$$$
>  <Molecule>
COC(=O)c1ccc(O)cc1 [methyl-4-hydrobenzoate]

>  <Classification>
interval 1

$$$$
>  <Molecule>
O=C(O)c1ccccc1C(c1ccc(O)cc1)c1ccc(O)cc1

>  <Classification>
interval 1

$$$$

Quick check: band for CCOC(=O)c1ccc(O)cc1 [ethyl-4-hydrobenzoate]
interval 1

Quick check: band for C[C@H]1CCC[C@H](O)CCCCCc2cc(O)cc(O)c2C(=O)O1
interval 3

---

Biological target: estrogen receptor (Rattus norvegicus)
Construct: in rat uterine cytosol, which was obtained from ovariectomized uteri of Sprague-Dawley rats; from tissue; host or cells: uterine cytosol of ovariectomized Sprague-Dawley rats
Sequence (P06211 1-600): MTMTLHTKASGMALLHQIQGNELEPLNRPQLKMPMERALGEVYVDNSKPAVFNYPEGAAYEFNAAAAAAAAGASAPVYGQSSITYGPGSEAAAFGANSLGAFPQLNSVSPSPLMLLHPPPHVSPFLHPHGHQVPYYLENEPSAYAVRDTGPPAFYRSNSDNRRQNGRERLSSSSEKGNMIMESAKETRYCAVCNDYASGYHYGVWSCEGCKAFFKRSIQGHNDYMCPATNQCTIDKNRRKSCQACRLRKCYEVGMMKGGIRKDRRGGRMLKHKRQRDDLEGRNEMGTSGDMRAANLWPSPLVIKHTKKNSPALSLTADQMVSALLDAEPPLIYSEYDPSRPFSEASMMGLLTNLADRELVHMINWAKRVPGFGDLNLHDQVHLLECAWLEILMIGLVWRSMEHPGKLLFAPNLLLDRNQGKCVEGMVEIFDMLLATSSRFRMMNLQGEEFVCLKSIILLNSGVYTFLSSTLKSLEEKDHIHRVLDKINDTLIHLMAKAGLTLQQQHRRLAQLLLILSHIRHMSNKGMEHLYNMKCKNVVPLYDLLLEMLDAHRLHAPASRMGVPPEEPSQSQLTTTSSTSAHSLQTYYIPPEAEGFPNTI
Assay: Competitive ER binding assay with [3H]E2 in rat uterine cytosol (NCTR)
Reported Exp. Log(RBA) values are given for each entry in this list.
The answer should be a number; do not append a unit.

>  <Molecule>
C#C[C@]1(O)CC[C@H]2[C@@H]3CCc4cc(O)ccc4[C@H]3[C@@H](OC)C[C@@]21C

>  <Exp. Log(RBA)>
1.14

$$$$
>  <Molecule>
O=S(=O)(c1ccc(O)cc1)c1ccc(O)cc1

>  <Exp. Log(RBA)>
−3.07

$$$$
>  <Molecule>
O=c1c(-c2ccc(O)cc2)coc2cc(O)ccc12

>  <Exp. Log(RBA)>
−1.65

$$$$
>  <Molecule>
O=C(CCc1ccc(O)cc1)c1c(O)cc(O)cc1O

>  <Exp. Log(RBA)>
−1.16

$$$$
>  <Molecule>
Oc1ccc(Cc2ccc(O)cc2)cc1 [bis-(4-hydroxyphenyl)methane]

>  <Exp. Log(RBA)>
−3.02

$$$$
>  <Molecule>
O=C1C[C@@H](c2ccc(O)cc2)Oc2cc(O)cc(O)c21

>  <Exp. Log(RBA)>
−2.13

$$$$
>  <Molecule>
C[C@]12CC[C@@H]3c4ccc(O)c(O)c4CC[C@H]3[C@@H]1CC[C@@H]2O [4-hydroxyestradiol]

>  <Exp. Log(RBA)>
2.24

$$$$
>  <Molecule>
C#C[C@]1(O)CC[C@H]2[C@@H]3CCc4cc(OC)ccc4[C@H]3CC[C@@]21C

>  <Exp. Log(RBA)>
0.35

$$$$

Quick check: Exp. Log(RBA) of Oc1cccc(-c2ccccc2)c1 ?
−3.44

Quick check: Exp. Log(RBA) of CCC(C)(C)c1ccc(O)cc1 ?
−3.26

Quick check: Exp. Log(RBA) of C[Si](C)(O[Si](C)(C)c1ccccc1)c1ccccc1 ?
−3.16
